Target: thrombin (alpha, Factor IIa) (Homo sapiens) (UniProt P00734+P00734)
Test: filter
Settings: 5-(1-pentynyl)-dU replacing T in amplified region; unit micro sign lost in print
pKd: −log10 of the molar value.
METRIC: pKd

The value of pKd measured for the sequence TAGAATACTCAAGCTTCGACGNNNNNNNNNNNNNNNNNNNNAGTTTGGATCCCCGGGTAC [unselected pentynyl-dU pool] turned out to be < 5.00

----------
Molecular target: thrombin (alpha, Factor IIa) (Homo sapiens) (UniProt P00734+P00734)
Assay: filter
METRIC: Kd

The value of Kd measured for the sequence TAGAATACTCAAGCTTCGACGNNNNNNNNNNNNNNNNNNNNAGTTTGGATCCCCGGGTAC [Round 6 pool prepared with thymidine] turned out to be > 10 µM
